Experiment: recombinant barcode read abundance after kanamycin selection (control-corrected) (log10(CPM+1)); higher = more efficient recombination; sequences stand for … in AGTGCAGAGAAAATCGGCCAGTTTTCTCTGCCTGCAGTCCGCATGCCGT…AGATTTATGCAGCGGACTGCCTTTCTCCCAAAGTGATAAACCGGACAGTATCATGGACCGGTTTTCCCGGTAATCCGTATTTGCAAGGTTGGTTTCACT; site = the 11-nt target
Reported recombinant barcode read abundance (log10) values are given for each entry in this list.

[[record]]
macromolecule_sequence = "TGTGGAGCTTGGGTTCTAACCTGTTGCCG (site TGTTGAGCTCG)"
measured = 0.00933


Task: Requested read-out: recombinant barcode read abundance (log10). Entry: CTACGTCCTTGGGTTCTAACCTGTTGCTT (site CTACGTCCTCA)
Output: 0.14

Task: Requested read-out: recombinant barcode read abundance (log10). Entry: GTGGCCACTTGGGTTCTAACCTGTTGCCT (site GTGGCCACTAG)
Output: 1.74

Task: Requested read-out: recombinant barcode read abundance (log10). Entry: AGGGATACTTGGGTTCTAACCTGTTGCTT (site AGGGATACTAA)
Output: 1.42

Task: Requested read-out: recombinant barcode read abundance (log10). Entry: GGGTCCACTTGGGTTCTAACCTGTTGCAT (site GGGTCCACTAC)
Output: 0.13

Task: Requested read-out: recombinant barcode read abundance (log10). Entry: TGAGTCCCTTGGGTTCTAACCTGTTGCCT (site TGCGTCCCTAG)
Output: 0.201

Task: Requested read-out: recombinant barcode read abundance (log10). Entry: ATATGTCCTTGGGTTCTAACCTGTTGCAA (site GGTGCATCTAA)
Output: 0.0198

Task: Requested read-out: recombinant barcode read abundance (log10). Entry: GTTTAAACTTGGGTTCTAACCTGTTGCCT (site GTTTACGCTAG)
Output: 0.0493

Task: Requested read-out: recombinant barcode read abundance (log10). Entry: GCCAACCCTTGGGTTCTAACCTGTTGCGT (site GCCAACCCTAC)
Output: 0.276

Task: Requested read-out: recombinant barcode read abundance (log10). Entry: GAGGCTTCTTGGGTTCTAACCTGTTGCCT (site GTGGCTTCTAG)
Output: 0.515

Task: Requested read-out: recombinant barcode read abundance (log10). Entry: ATGGACACTTGGGTTCTAACCTGTTGCGT (site GACTGGCCTCT)
Output: 0.133

Task: Requested read-out: recombinant barcode read abundance (log10). Entry: CAAACTCCTTGGGTTCTAACCTGTTGCCT (site CAAACTCCTAA)
Output: 0.137

Task: Requested read-out: recombinant barcode read abundance (log10). Entry: ATTAAGTCTTGGGTTCTAACCTGTTGCCT (site AGTAAGTCTAG)
Output: 0.0808

Task: Requested read-out: recombinant barcode read abundance (log10). Entry: TCGCGGCCTTGGGTTCTAACCTGTTGCCT (site TCGCGGCCTAG)
Output: 0.0408

====

Experiment: recombinant UMI read abundance after kanamycin selection (control-corrected) (log10(CPM+1)); higher = more efficient recombination; extreme values may be limits of the assay; sequences stand for … in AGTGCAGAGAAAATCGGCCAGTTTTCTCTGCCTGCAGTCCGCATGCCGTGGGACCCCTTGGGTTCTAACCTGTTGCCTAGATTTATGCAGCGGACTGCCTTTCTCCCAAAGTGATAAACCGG…AGGTTGGTTTCACT; site = the 11-nt donor
OBSERVATION TYPE: recombinant UMI read abundance (log10)

Use these answered entries as a reference point.
[[record]]
macromolecule_sequence = "CAGTCTACATGGACCGGTTTTCCCGGTAATCCGTATTTGGG (site CAGTCTACTCC)"
observation_type = "recombinant UMI read abundance (log10)"
measured = 0.0109

[[record]]
macromolecule_sequence = "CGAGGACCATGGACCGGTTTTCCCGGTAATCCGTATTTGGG (site CGAGGACCTTC)"
observation_type = "recombinant UMI read abundance (log10)"
measured = 0.00702

[[record]]
macromolecule_sequence = "CAACCCACATGGACCGGTTTTCCCGGTAATCCGTATTTGAT (site CAACCCACTAT)"
observation_type = "recombinant UMI read abundance (log10)"
measured = 0.946

[[record]]
macromolecule_sequence = "ATCTATTCATGGACCGGTTTTCCCGGTAATCCGTATTTGAC (site ATCTATCCTGT)"
observation_type = "recombinant UMI read abundance (log10)"
measured = 1.89


Task: Requested read-out: recombinant UMI read abundance (log10). Entry: CAGGTGGCATGGACCGGTTTTCCCGGTAATCCGTATTTGCG (site CAGGTGGCTCG)
Output: 1.88

Task: Requested read-out: recombinant UMI read abundance (log10). Entry: GTTGTTCCATGGACCGGTTTTCCCGGTAATCCGTATTTGGC (site GTTGTTCCTAC)
Output: 0.00298

Task: Requested read-out: recombinant UMI read abundance (log10). Entry: GCTTACACATGGACCGGTTTTCCCGGTAATCCGTATTTGCG (site GCTTACACTCG)
Output: 1.72

====

Test: recombinant barcode read abundance after kanamycin selection (control-corrected) (log10(CPM+1)); higher = more efficient recombination; sequences stand for … in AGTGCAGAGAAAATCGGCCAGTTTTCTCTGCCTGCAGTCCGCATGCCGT…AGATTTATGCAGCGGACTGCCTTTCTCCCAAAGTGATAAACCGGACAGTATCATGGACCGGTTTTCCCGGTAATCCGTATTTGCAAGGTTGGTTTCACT; site = the 11-nt target
Each record's class is read off its recombinant barcode read abundance (log10) using these ranges: lo = under 0.08, med = from 0.08 up to 0.5, hi = 0.5 and over

Answered examples (6):
[[record]]
macromolecule_sequence = "TTCCAATCTTGGGTTCTAACCTGTTGCCA (site TGCCAATCTAG)"
assigned_label = "lo"

[[record]]
macromolecule_sequence = "GGAGCCTCTTGGGTTCTAACCTGTTGCTC (site GGAGCCTCTGA)"
assigned_label = "hi"

[[record]]
macromolecule_sequence = "TAATCCTCTTGGGTTCTAACCTGTTGCCT (site AAATCCTCTAG)"
assigned_label = "hi"

[[record]]
macromolecule_sequence = "CTCTAGCCTTGGGTTCTAACCTGTTGCGT (site CTCTATCCTAC)"
assigned_label = "lo"

[[record]]
macromolecule_sequence = "GTGTTGCCTTGGGTTCTAACCTGTTGCCT (site GAGTTGCCTAG)"
assigned_label = "med"

[[record]]
macromolecule_sequence = "AGAAGTCCTTGGGTTCTAACCTGTTGCAG (site AGAAGTCCTCT)"
assigned_label = "hi"


Task: Into which category would you place ACATGTACTTGGGTTCTAACCTGTTGCCG (site ACATGTACTCG) ?
Output: med

Task: Into which category would you place TGACTAGCTTGGGTTCTAACCTGTTGCCT (site TGCCTAGCTAG) ?
Output: lo

Task: Into which category would you place ACAAGGCCTTGGGTTCTAACCTGTTGCAT (site TGCCCCTCTCG) ?
Output: med

====

Reported recombinant barcode read abundance (log10) values are given for each entry in this list.
Experiment: recombinant barcode read abundance after kanamycin selection (control-corrected) (log10(CPM+1)); higher = more efficient recombination; sequences stand for … in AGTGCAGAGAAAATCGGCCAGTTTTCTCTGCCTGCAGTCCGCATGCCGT…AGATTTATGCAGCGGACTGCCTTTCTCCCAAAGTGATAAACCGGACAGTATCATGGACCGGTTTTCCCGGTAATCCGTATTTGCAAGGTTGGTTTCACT; site = the 11-nt target
# respond with the number and nothing more

Use these answered entries as a reference point.
[[record]]
macromolecule_sequence = "TTGGATCCTTGGGTTCTAACCTGTTGCTT (site TTGGATCCTAA)"
measured = 1.87

[[record]]
macromolecule_sequence = "AAGGAACCTTGGGTTCTAACCTGTTGCCT (site TAGGAACCTAG)"
measured = 2.11


From here, focus on the item given below.
Task: Requested read-out: recombinant barcode read abundance (log10). Entry: GACGGATCTTGGGTTCTAACCTGTTGCTT (site GACGGATCTAG)
Output: 0.197

====

Assay: recombinant UMI read abundance after kanamycin selection (control-corrected) (log10(CPM+1)); higher = more efficient recombination; extreme values may be limits of the assay; sequences stand for … in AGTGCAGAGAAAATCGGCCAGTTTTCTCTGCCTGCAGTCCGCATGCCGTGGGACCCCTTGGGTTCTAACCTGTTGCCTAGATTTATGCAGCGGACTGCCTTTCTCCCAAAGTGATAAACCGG…AGGTTGGTTTCACT; site = the 11-nt donor
Reported recombinant UMI read abundance (log10) values are given for each entry in this list.
# respond with the number and nothing more

Use these answered entries as a reference point.
[[record]]
macromolecule_sequence = "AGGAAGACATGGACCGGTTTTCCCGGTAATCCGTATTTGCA (site AGCACGACTTG)"
observation_type = "recombinant UMI read abundance (log10)"
measured = 0

[[record]]
macromolecule_sequence = "TGGATACCATGGACCGGTTTTCCCGGTAATCCGTATTTGCG (site TGGATACCTCG)"
observation_type = "recombinant UMI read abundance (log10)"
measured = 0

[[record]]
macromolecule_sequence = "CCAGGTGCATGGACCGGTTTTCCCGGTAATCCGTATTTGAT (site TCAGGTGCTAT)"
observation_type = "recombinant UMI read abundance (log10)"
measured = 0.0184


From here, focus on the item given below.
Task: Requested read-out: recombinant UMI read abundance (log10). Entry: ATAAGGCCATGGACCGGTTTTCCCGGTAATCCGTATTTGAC (site ATAATGCCTGT)
Output: 0
